Reference source: PubChem BioAssay (NCI)

system: NCI-H460 lung; experiment: NCI-60 one-dose screen, 48 h (100 = growth as untreated, 0 = no growth, -100 = all killed); settings: 10 µM unless noted
This is part of a sample that, as a whole, favours compounds with a hit. Of some 83,000 tested, about 20% had one in any assay.
Listing of entries alongside the reported growth.
property-measured: growth (%)

{"molecule": "CC(C)CC1NC(=O)C(CC(C)C)N(CO)C1=O (stereo not given)", "unit-spec": "%", "endpoint-result": 116}
{"molecule": "COc1ncnc2[nH]cc(CN3CCN(c4ccc(F)cc4)CC3)c12", "unit-spec": "%", "endpoint-result": 108}
{"molecule": "CCN(CC)CCNC(=O)n1cc(-c2ccncc2)c(-c2cc(Cl)cc(OC)c2)n1", "unit-spec": "%", "endpoint-result": 97.9}
{"molecule": "O=[N+]([O-])c1ccc(SSc2ccc([N+](=O)[O-])cc2Cl)c(Cl)c1", "unit-spec": "%", "endpoint-result": 92.2}
{"molecule": "CCc1onc(-c2ccc(OC)cc2)c1-c1ccccc1OCCN(CC)CC", "unit-spec": "%", "endpoint-result": 98.7}
{"molecule": "C=C1C(=O)O[C@H]2[C@H]1CC/C(COC(=O)NCc1c[nH]c3ccc(OC)cc13)=C\\CC[C@@]1(C)O[C@@H]21", "unit-spec": "%", "endpoint-result": 33.7}
{"molecule": "C[C@@H]1N=C(c2ccc3ccccc3c2)Nc2nc3ccccn3c2C1=O", "unit-spec": "%", "endpoint-result": 15.2}
{"molecule": "COc1ccc(-c2nn(C(=O)NCCN(C)C)cc2-c2ccncc2)cc1Cl", "unit-spec": "%", "endpoint-result": 27.4}
{"molecule": "COc1cnc2c(c1)C(=O)c1c-2n(CCCN2CCN(C)CC2)c(=O)c2cc(Cl)ccc12", "unit-spec": "%", "endpoint-result": 6.14}
{"molecule": "O=C1N(Cc2ccccc2Cl)c2ccccc2C12NN=C(c1ccccc1)S2 (stereo not given)", "unit-spec": "%", "endpoint-result": 17.5}

---

Listing of entries alongside the reported growth.
system: SNB-19 CNS; assay: NCI-60 one-dose screen, 48 h (100 = growth as untreated, 0 = no growth, -100 = all killed); details: 10 µM unless noted
About 83,000 compounds went through this panel and 20% of them were active in at least one assay; those are over-represented in the sample as a whole.

{"compound": "CCSc1cnnc2ccccc12", "unit-spec": "%", "growth": 106}
{"compound": "CCOC(=O)C1OC2(CCCC2)OC1C(=O)OCC (stereo unspecified)", "unit-spec": "%", "growth": 99.3}
{"compound": "COc1cc(C2CC(c3cccc(Nc4ccnc5cc(Cl)ccc45)c3)=NN2C=O)cc(OC)c1OC (stereo unspecified)", "unit-spec": "%", "growth": 36.9}
{"compound": "CCC(=O)NC1=C(Cl)C(=O)C(NC(=O)CC)=C(Cl)C1=O", "unit-spec": "%", "growth": 115}
{"compound": "COc1cc(OC)c(C(=O)/C=C/c2cccc(OC(C)=O)c2)cc1CC=C(C)C", "unit-spec": "%", "growth": 101}
{"compound": "COc1cc2ncnc(Nc3ccc(S(=O)(=O)Nc4nccs4)cc3)c2cc1OCCCN1CCOCC1", "unit-spec": "%", "growth": 104}
{"compound": "O=C(Nc1cccc(N=Cc2c(O)ccc3ccccc23)c1)c1ccccc1", "unit-spec": "%", "growth": 101}
{"compound": "CCCCCN(CCCCC)C(=O)C(CCC(=O)O)NC(=O)c1ccc(Cl)c(Cl)c1 (stereo unspecified)", "unit-spec": "%", "growth": 112}
{"compound": "O=S(=O)(Nc1ccc2ccccc2c1)N1CCCCC1", "unit-spec": "%", "growth": 90.2}
{"compound": "O=C(/C=C/c1cn(-c2ccccc2)nc1-c1ccccc1)OCc1cn(-c2cccc([N+](=O)[O-])c2)nn1", "unit-spec": "%", "growth": 87.8}
{"compound": "CCOC(=O)c1ccc(NC(=O)CSC(N)=O)cc1", "unit-spec": "%", "growth": 91.1}
{"compound": "O=C(O)c1ccccc1Oc1cc(-c2ccco2)nc(OCCN2CCOCC2)n1", "unit-spec": "%", "growth": 96.9}
{"compound": "Cc1[nH]c2ccccc2c1C1=CC(=O)C=CC1=O", "unit-spec": "%", "growth": 93}
{"compound": "COC(=O)CSc1ccc(Cl)cc1", "unit-spec": "%", "growth": 103}
{"compound": "CCN1C(=O)N(CC)C2C1NN=c1s/c(=C\\c3ccco3)c(=O)n12 (stereo unspecified)", "unit-spec": "%", "growth": 22.7}
{"compound": "CC(C)[C@@H]1C=C2CC[C@H]3[C@](C)(CN)CCC[C@]3(C)[C@H]2CC1", "unit-spec": "%", "growth": 104}
{"compound": "C=C1C(=O)O[C@H]2[C@H]1CC/C(COC(=O)NCc1cccc(OC)c1)=C\\CC[C@@]1(C)O[C@@H]21", "unit-spec": "%", "growth": 69.9}
{"compound": "CN1C(=O)N(C)C2C1NN=c1s/c(=C\\c3ccc(Br)cc3)c(=O)n12 (stereo unspecified)", "unit-spec": "%", "growth": 34.9}
{"compound": "O=c1oc2ccccc2cc1-c1cc(-c2ccc(-c3cc(-c4cc5ccccc5oc4=O)nc(-c4cc5ccccc5oc4=O)c3)cc2)cc(-c2cc3ccccc3oc2=O)n1", "unit-spec": "%", "growth": 96.9}
{"compound": "Cn1c(=O)c2c(nc(N/N=C/c3ccccc3Cl)n2C)n(C)c1=O", "unit-spec": "%", "growth": 108}
{"compound": "COc1ccc(Nc2nc(N)nc3c(=O)[nH]ccc23)cc1", "unit-spec": "%", "growth": 101}

---

tested on: T-47D breast; test: NCI-60 one-dose screen, 48 h (100 = growth as untreated, 0 = no growth, -100 = all killed); conditions: 10 µM unless noted
This is part of a sample that, as a whole, favours compounds with a hit. Of some 83,000 tested, about 20% had one in any assay.
Note to self: values exactly at 60% are Y. So growth at or above 60% is Y, below is N.

{"molecule": "Cc1nc(N)nc2c1CCC(Nc1ccccc1)S2 (stereo not given)", "group-label": "Y"}
{"molecule": "O=C(Nc1cccc(N=Cc2c(O)ccc3ccccc23)c1)c1ccccc1", "group-label": "Y"}
{"molecule": "CSc1nc(N)c2[nH]c(-c3cc4ccccc4[nH]c3=O)nc2n1", "group-label": "Y"}
{"molecule": "Nc1cc(C(=O)O)cc(C(=O)O)c1", "group-label": "Y"}
{"molecule": "S=C(Nc1ccc(Cl)cc1)Nc1ccc(Cl)cc1 (tested in a mixture with another compound)", "group-label": "N"}
{"molecule": "Clc1ccc(Cl)c(N=Cc2ccc3c(c2)OCO3)c1", "group-label": "Y"}
{"molecule": "CCOc1cc(/C=N\\NC(=O)C[N+](C)(C)C)ccc1O", "group-label": "Y"}
{"molecule": "Cc1ccc(C)c(NC(=O)c2sc3c(=O)[nH]cnc3c2C)c1", "group-label": "Y"}
{"molecule": "CS(=O)(=O)c1ccc(Cl)c([N+](=O)[O-])c1", "group-label": "Y"}
{"molecule": "O=C1CCCN1C1CCN2CCCc3cccc1c32 (stereo not given)", "group-label": "Y"}
{"molecule": "CC(C)CCSc1nc(Nc2ccccc2)c(C#N)c(-c2ccc(F)cc2)n1", "group-label": "N"}
{"molecule": "c1ccc2c(N=NSc3ncnc4nc[nH]c34)c3ccccc3nc2c1", "group-label": "N"}
{"molecule": "Cc1cc([N+](=O)[O-])c(C)cc1N", "group-label": "Y"}
{"molecule": "COc1ccc(/C=C(\\C#N)c2cc(OC)c(OC)c(OC)c2)cc1", "group-label": "N"}
{"molecule": "NNc1ccc(S(N)(=O)=O)cc1", "group-label": "Y"}
{"molecule": "CNC1=C([N+](=O)[O-])C(c2ccccc2O)C(C#N)=C(c2cccs2)O1 (stereo not given)", "group-label": "Y"}
{"molecule": "C=C[C@H]1CCC/C=C/[C@@H]2C[C@H](O)C[C@H]2[C@H](O)/C=C/C(=O)O1", "group-label": "N"}
{"molecule": "COc1ccc(C(=O)OC2C(OC3C(O)COC(O[C@H]4C[C@H]5[C@@H]6CC=C7C[C@@H](O)CC[C@]7(C)[C@H]6CC[C@]5(C)[C@H]4[C@H](C)C(=O)CCC(C)C)C3OC(N)=O)OCC(O)C2O)cc1 (stereo not given in full)", "group-label": "N"}
{"molecule": "CS(=O)(=O)c1ccc(C(=O)N/N=C/c2ccc3c(c2)OCO3)cc1", "group-label": "Y"}
{"molecule": "CCOC(OCC)c1cnc2nc(NC(C)=O)[nH]c(=O)c2n1", "group-label": "Y"}
{"molecule": "COc1cc(OC)c(Cl)cc1N", "group-label": "Y"}
{"molecule": "O=C1c2cccc3cccc(c23)C(=O)N1CCCCCCCCCCN1C(=O)c2cccc3cccc(c23)C1=O", "group-label": "Y"}
{"molecule": "CN(C)c1ccc(/C=C\\c2cccc[n+]2C)cc1", "group-label": "N"}
{"molecule": "O=C(Cc1ccc([N+](=O)[O-])cc1)Oc1ccccc1", "group-label": "Y"}
{"molecule": "CCN1C(=O)N(CC)C2C1NC(=O)N2/N=C/C=C/c1ccccc1 (stereo not given)", "group-label": "N"}
{"molecule": "CCN1C(=O)/C(=C/N2N=C(c3ccc(Cl)cc3)CC2c2ccc(OC)cc2)SC1=S (stereo not given)", "group-label": "Y"}
{"molecule": "NS(=O)(=O)c1ccc(CCn2c(SCC(=O)N/N=C/c3cc4ccccc4[nH]3)nc3ccccc3c2=O)cc1", "group-label": "N"}
{"molecule": "CC(=O)c1ccc(Br)c([N+](=O)[O-])c1", "group-label": "Y"}
{"molecule": "O=C(NCCN1CCCC1)n1cc(-c2ccncc2)c(-c2cc(O)cc(Cl)c2)n1", "group-label": "Y"}
{"molecule": "CCC1=CC2CN(C1)Cc1c([nH]c3ccccc13)[C@@](C(=O)OC)(c1cc3c(cc1OC)N(C)[C@H]1[C@@](O)(C(=O)OC)[C@H](OC(C)=O)[C@]4(CC)C=CCN5CC[C@]31[C@@H]54)C2 (stereo not given in full)", "group-label": "Y"}
{"molecule": "COc1cc(CN2CCC(N3CCCC3=O)c3ccccc32)cc(OC)c1OC (stereo not given)", "group-label": "Y"}
{"molecule": "Cc1cc(C#Cc2ccc(C(C)(C)C)cc2)ccc1-n1c(/C=C/c2c(Cl)cccc2Cl)nc2ccccc2c1=O", "group-label": "Y"}
{"molecule": "Cc1nn(-c2cccc(Cl)c2)c(C)c1N=Nc1ccc(Br)cc1", "group-label": "Y"}
{"molecule": "COc1cc(C2CC(c3ccc(C)cc3)=NN2C=O)ccc1Oc1ccnc2cc(Cl)ccc12 (stereo not given)", "group-label": "Y"}
{"molecule": "C#CCO[C@H]1CC[C@H](OCC#C)[C@@H]2[C@H]1[C@H]1C[C@@H]3[C@@]4(C)CCC[C@@](C)(C(=O)OC)[C@@H]4CC[C@@]23C=C1C(C)C", "group-label": "Y"}
{"molecule": "COc1cc(C2CC(c3cccc(Nc4ccnc5cc(Cl)ccc45)c3)=NN2C=O)cc(OC)c1OC (stereo not given)", "group-label": "N"}
{"molecule": "O=C1/C(=C/c2ccccc2)SC(=Nc2ccccc2)N1Nc1ccccc1", "group-label": "N"}
